Values from patent US20260317332A1

# Tested on: CD4+ T cells
# Test Name: T Cell Proliferation Assay: CD4+ T cell proliferation
# Assay type: cell-based
# Stated Conditions: Homo sapiens, high AMP condition (200 μM AMP, 5 μM EHNA), CD3/CD28 beads, 72 hours, read-out: CD4+ T cell proliferation EC50 (rescue of proliferation)
pEC50: −log10 of the molar value.

{"columns": ["Compound", "pEC50"],
 "data": [
  ["Cn1nc(O[C@H](c2cc(OC3CC(F)(F)C3)ncn2)C(F)F)c2cc(-c3c[nH]c(=O)[nH]c3=O)nnc21 [Example 42A]", 9.66],
  ["Cn1nc(O[C@H](c2cc(OCC(F)(F)F)ccn2)C(F)F)c2cc(-c3c[nH]c(=O)[nH]c3=O)nnc21", 9.74],
  ["Cn1nc(O[C@H](c2ccnc(COC3CC3)c2)C(F)F)c2cc(-c3c[nH]c(=O)[nH]c3=O)nnc21", 9.74],
  ["Cn1nc(O[C@H](c2ccnc(OCC(F)(F)F)c2)C(F)F)c2cc(-c3c[nH]c(=O)[nH]c3=O)nnc21", 9.85]
]}

----------
Entries and their pIC50 values follow.
# Experimental Target: UniProt:P21589
# Test Name: Human CD73 Biochemical Assay
# Stated Conditions: 0.05 nM recombinant CD73; AMP 5.56 μM final; 10 min at room temperature; LC/MS adenosine readout; read-out: Enzymatic IC50 against human CD73
pIC50: −log10 of the molar value.

{"columns": ["Compound", "pIC50"],
 "data": [
  ["Cn1nc(O[C@H](c2ccc(F)c(OCC(F)(F)F)c2)C(F)F)c2cc(-c3c[nH]c(=O)[nH]c3=O)nnc21", 9.77],
  ["Cn1nc(O[C@H](c2cc(OCC(F)(F)F)ccn2)C(F)F)c2cc(-c3c[nH]c(=O)[nH]c3=O)nnc21", 10.15],
  ["Cn1nc(O[C@H](c2ccnc(N3CCC(F)(F)CC3)c2)C(F)F)c2cc(-c3c[nH]c(=O)[nH]c3=O)nnc21", 10.30],
  ["Cn1nc(O[C@H](c2ccnc(OCC(F)F)c2)C(F)F)c2cc(-c3n[nH]c(=O)[nH]c3=O)nnc21 [Example 13A]", 10.70],
  ["Cn1nc(O[C@H](c2ccnc(C3CC(F)(F)C3)c2)C(F)F)c2cc(-c3c[nH]c(=O)[nH]c3=O)nnc21", 10.22],
  ["Cn1nc(O[C@H](c2ccnc(COC3CC3)c2)C(F)F)c2cc(-c3c[nH]c(=O)[nH]c3=O)nnc21", 10.15],
  ["C[C@H](OC1CC1)c1cc([C@@H](Oc2nn(C)c3nnc(-c4c[nH]c(=O)[nH]c4=O)cc23)C(F)F)ccn1 (single isomer, unassigned) [Example 37A]", 9.89]
]}

----------
# Experimental Target: CD73 (Homo sapiens, UniProt P21589)
# Sequence (P21589 27-574): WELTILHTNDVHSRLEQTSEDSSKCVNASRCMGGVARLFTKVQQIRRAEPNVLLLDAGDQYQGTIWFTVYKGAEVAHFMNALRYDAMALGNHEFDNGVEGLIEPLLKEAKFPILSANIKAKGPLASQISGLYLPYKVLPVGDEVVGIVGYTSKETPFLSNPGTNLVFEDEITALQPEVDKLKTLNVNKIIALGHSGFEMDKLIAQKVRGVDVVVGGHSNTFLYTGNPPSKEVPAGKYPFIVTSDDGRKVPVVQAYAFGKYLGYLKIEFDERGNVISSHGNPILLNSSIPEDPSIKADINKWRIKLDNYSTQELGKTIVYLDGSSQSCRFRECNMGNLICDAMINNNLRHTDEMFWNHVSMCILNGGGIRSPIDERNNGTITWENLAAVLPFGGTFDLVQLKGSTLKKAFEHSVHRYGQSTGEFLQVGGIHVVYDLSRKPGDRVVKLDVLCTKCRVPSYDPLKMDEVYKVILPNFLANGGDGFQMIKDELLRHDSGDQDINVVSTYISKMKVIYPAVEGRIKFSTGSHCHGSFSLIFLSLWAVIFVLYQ
# Test Name: Human CD73 Biochemical Assay
# Stated Conditions: 0.05 nM recombinant CD73; AMP 5.56 μM final; 10 min at room temperature; LC/MS adenosine readout; read-out: Enzymatic IC50 against human CD73
Values of IC50 strictly less than 0.05 nM map to label 1, and values of at least 0.05 nM map to label 0.

{"columns": ["Compound", "Classification"],
 "data": [
  ["Cn1nc(O[C@H](c2cncc(OCC(F)(F)F)c2)C(F)F)c2cc(-c3c[nH]c(=O)[nH]c3=O)nnc21 (single isomer, unassigned)", "label 0"],
  ["Cn1nc(O[C@H](c2cc(OCC(F)(F)F)ncn2)C(F)F)c2cc(-c3c[nH]c(=O)[nH]c3=O)nnc21 (single isomer, unassigned) [Example 35A]", "label 0"],
  ["C[C@H](Nc1cc([C@@H](Oc2nn(C)c3nnc(-c4c[nH]c(=O)[nH]c4=O)cc23)C(F)F)ccn1)C(F)(F)F", "label 1"],
  ["Cn1nc(O[C@H](c2cc(OCC#N)ccn2)C(F)F)c2cc(-c3c[nH]c(=O)[nH]c3=O)nnc21", "label 0"]
]}
